Molecular target: Adenosine receptor A3 (Rattus norvegicus, UniProt P28647)
Sequence (P28647 whole entry): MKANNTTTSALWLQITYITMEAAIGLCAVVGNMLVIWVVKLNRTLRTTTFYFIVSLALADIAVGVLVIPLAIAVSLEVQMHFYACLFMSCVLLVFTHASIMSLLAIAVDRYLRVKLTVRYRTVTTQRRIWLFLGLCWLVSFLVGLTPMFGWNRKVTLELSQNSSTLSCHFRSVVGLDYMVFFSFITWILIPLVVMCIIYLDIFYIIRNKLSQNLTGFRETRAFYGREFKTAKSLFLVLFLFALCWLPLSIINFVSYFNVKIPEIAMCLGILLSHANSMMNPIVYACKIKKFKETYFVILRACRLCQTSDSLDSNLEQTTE
Experiment: Binding affinity against rat adenosine A3 receptor in RBL-2H3 cells

# chemical-smiles, Ki
records = [
    ("Cn1cc2c(nc(NC(=O)Nc3ccncc3)n3nc(-c4ccco4)nc23)n1", "> 1 µM"),
]

###

Molecular target: Adenosine receptor A3 (Homo sapiens, UniProt P0DMS8)
Sequence (P0DMS8 whole entry): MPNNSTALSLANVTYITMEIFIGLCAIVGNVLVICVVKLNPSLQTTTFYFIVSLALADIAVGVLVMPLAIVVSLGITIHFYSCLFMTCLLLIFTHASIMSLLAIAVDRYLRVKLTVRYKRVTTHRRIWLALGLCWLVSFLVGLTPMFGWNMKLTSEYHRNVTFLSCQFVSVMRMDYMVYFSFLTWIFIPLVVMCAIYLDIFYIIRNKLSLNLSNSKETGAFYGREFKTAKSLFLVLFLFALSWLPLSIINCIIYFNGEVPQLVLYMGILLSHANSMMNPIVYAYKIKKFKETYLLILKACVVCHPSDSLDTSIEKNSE
Assay: Inhibitory activity against Human Adenosine A3 receptor expressed in CHO cells
Assay type: cell-based

# chemical-smiles, IC50
rows = [
    ("Cn1cc2c(nc(NC(=O)Nc3ccccc3)n3nc(-c4ccco4)nc23)n1", "2.1 nM"),
]
